Hello, the source for this data is patent US6506772B1, in case you need it.

- Experimental System: UniProt P30542
- Sequence (P30542 whole entry): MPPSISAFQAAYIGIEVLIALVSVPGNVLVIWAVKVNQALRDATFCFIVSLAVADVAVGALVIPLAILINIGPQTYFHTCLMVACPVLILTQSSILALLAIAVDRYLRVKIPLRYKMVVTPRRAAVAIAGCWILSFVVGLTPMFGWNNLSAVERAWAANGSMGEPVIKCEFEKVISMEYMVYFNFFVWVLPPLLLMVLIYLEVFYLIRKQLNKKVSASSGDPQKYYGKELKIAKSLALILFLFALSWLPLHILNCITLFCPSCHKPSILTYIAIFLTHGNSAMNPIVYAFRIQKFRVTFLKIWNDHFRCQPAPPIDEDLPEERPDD
- Assay Summary: Human adenosine A1 receptor affinity (Ki hA1)
- Assay type: binding
Measurement Type: pKi
Friendly reminder that pKi comes from taking -log10 of the concentration in mol/L.

Solved entries (count: 10):
CC(C)CN(CC(C)C)C(=O)c1cc(N)n2nc(-c3nccs3)nc2c1 | 6.00
CC1CCCCN1C(=O)c1cc(N)n2nc(-c3ccccn3)nc2c1 (stereo not drawn) | 5.99
COCCN(C)C(=O)c1cc(N)n2nc(-c3ccc(Br)o3)nc2c1 | 6.53
COC[C@H]1CCCN1C(=O)c1cc(N)n2nc(-c3ccccn3)nc2c1 | 5.89
CN(C)C(=O)C1CCCN1C(=O)c1cc(N)n2nc(-c3ccccn3)nc2c1 (stereo not drawn) | 5.62
COC[C@H]1CCCN1C(=O)c1cc(N)n2nc(-c3nccs3)nc2c1 | 5.46
CC1CCCN1C(=O)c1cc(N)n2nc(-c3ccccn3)nc2c1 (stereo not drawn) | 5.85
C=CCN(C(=O)c1cc(N)n2nc(-c3nccs3)nc2c1)C1CCCC1 | 6.14
NC(=O)[C@@H]1CCCN1C(=O)c1cc(N)n2nc(-c3ccc(Br)o3)nc2c1 [Example 388] | 6.48
C=CCN(CC=C)C(=O)c1cc(N)n2nc(-c3ccccn3)nc2c1 | 6.08

Task: Look up and report measured pKi (UniProt P30542) for the following compound: CCC1CCC(C)N(C(=O)c2cc(N)n3nc(-c4ccccn4)nc3c2)C1 (stereo not drawn)
Result: 6.16

Task: Look up and report measured pKi (UniProt P30542) for the following compound: CN(C)C(=O)CN(C)C(=O)c1cc(N)n2nc(-c3ccc(Br)o3)nc2c1
Result: 6.15

Task: Look up and report measured pKi (UniProt P30542) for the following compound: CCN(Cc1ccncc1)C(=O)c1cc(N)n2nc(-c3ccccn3)nc2c1
Result: 5.99

Task: Look up and report measured pKi (UniProt P30542) for the following compound: C=CCN(C(=O)c1cc(N)n2nc(-c3ccccn3)nc2c1)C1CCCC1
Result: 6.32

Task: Look up and report measured pKi (UniProt P30542) for the following compound: CC(C)N(Cc1ccccc1)C(=O)c1cc(N)n2nc(-c3ccccn3)nc2c1
Result: 6.73

Task: Look up and report measured pKi (UniProt P30542) for the following compound: CCN(C)C(=O)c1cc(N)n2nc(-c3ccccn3)nc2c1
Result: 5.41

Task: Look up and report measured pKi (UniProt P30542) for the following compound: Nc1cc(C(=O)N2CC=CC2)cc2nc(-c3ccccn3)nn12
Result: 5.86

Task: Look up and report measured pKi (UniProt P30542) for the following compound: CC1CC(C)CN(C(=O)c2cc(N)n3nc(-c4ccccn4)nc3c2)C1 (stereo not drawn)
Result: 6.08

Task: Look up and report measured pKi (UniProt P30542) for the following compound: CC1CCCN(C(=O)c2cc(N)n3nc(-c4ccccn4)nc3c2)C1 (stereo not drawn)
Result: 5.80

Task: Look up and report measured pKi (UniProt P30542) for the following compound: C=CCN(C)C(=O)c1cc(N)n2nc(-c3ccccn3)nc2c1
Result: 5.78

Task: Look up and report measured pKi (UniProt P30542) for the following compound: CC(=O)NC1CCN(C(=O)c2cc(N)n3nc(-c4ccc(Br)o4)nc3c2)C1 (stereo not drawn)
Result: 5.83
